- TARGET_UNDER_TEST: AMPA receptor GluA1 (Homo sapiens, UniProt P42261)
- Sequence (P42261 19-906 isoform P42261-2 limits assumed): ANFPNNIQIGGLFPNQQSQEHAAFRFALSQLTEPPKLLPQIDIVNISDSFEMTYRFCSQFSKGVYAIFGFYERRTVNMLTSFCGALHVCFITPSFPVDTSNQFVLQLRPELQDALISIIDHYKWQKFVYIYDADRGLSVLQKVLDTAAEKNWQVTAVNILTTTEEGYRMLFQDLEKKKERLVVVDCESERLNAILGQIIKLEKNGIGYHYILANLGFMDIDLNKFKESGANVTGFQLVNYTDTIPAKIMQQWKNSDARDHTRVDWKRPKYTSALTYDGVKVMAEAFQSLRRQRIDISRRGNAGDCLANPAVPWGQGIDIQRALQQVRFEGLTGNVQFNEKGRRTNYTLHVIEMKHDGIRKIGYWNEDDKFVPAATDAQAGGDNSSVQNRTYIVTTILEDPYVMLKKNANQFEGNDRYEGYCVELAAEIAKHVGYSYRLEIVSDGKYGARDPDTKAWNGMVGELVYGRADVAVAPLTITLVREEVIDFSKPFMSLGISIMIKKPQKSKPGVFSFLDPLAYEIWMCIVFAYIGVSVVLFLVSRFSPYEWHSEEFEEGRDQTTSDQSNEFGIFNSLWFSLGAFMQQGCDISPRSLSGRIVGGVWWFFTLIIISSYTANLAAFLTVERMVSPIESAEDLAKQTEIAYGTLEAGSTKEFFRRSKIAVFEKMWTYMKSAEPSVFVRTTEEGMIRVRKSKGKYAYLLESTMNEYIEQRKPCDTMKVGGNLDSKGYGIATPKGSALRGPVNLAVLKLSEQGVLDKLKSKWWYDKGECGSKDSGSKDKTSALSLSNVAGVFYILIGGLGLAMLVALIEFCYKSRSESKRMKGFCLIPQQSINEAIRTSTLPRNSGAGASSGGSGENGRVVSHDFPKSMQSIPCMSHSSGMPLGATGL
- ASSAY_EXPLANATION: Two-electrode voltage clamp, homomeric GluA1 AMPA receptor expressed in Xenopus oocytes
pIC50: −log10 of the molar value.
ATTRIBUTE_MEASURED: pIC50

| MOLECULE | ATTRIBUTE_MEASURED | QUANTITATIVE_READOUT |
| --- | --- | --- |
| CCCCCCCCCC(=O)O [decanoic acid] | pIC50 | 2.68 |

* * *

- TARGET_UNDER_TEST: AMPA receptor GluA2/3 (Homo sapiens, UniProt P42262+P42263)
- Construct: expressed in transfected cells; host or cells: Xenopus laevis oocytes injected with cRNA (1:1 mix)
- Sequence (P42262 22-883 isoform P42262-2 limits assumed): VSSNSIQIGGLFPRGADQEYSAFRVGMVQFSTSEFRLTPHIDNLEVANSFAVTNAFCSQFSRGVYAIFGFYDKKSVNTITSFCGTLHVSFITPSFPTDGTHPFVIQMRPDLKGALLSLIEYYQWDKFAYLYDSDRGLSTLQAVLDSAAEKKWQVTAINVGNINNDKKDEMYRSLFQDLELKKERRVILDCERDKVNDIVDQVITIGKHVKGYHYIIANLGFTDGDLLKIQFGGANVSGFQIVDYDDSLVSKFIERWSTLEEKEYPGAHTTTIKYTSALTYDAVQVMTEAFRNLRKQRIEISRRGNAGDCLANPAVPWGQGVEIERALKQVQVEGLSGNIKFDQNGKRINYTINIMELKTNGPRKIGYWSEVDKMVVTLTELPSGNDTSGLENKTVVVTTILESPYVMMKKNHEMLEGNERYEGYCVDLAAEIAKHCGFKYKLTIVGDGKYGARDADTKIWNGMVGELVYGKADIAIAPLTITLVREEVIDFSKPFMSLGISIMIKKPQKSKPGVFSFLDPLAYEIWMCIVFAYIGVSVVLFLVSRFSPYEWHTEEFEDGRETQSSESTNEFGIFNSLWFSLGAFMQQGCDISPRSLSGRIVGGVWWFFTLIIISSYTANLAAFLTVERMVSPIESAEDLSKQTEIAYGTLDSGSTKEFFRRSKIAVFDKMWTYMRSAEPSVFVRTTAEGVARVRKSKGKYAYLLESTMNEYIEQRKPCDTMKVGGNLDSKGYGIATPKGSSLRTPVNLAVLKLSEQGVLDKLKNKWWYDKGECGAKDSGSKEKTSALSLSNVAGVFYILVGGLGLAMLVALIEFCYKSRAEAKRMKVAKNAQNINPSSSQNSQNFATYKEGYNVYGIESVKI
- Sequence (P42263 29-894 isoform P42263-2 limits assumed): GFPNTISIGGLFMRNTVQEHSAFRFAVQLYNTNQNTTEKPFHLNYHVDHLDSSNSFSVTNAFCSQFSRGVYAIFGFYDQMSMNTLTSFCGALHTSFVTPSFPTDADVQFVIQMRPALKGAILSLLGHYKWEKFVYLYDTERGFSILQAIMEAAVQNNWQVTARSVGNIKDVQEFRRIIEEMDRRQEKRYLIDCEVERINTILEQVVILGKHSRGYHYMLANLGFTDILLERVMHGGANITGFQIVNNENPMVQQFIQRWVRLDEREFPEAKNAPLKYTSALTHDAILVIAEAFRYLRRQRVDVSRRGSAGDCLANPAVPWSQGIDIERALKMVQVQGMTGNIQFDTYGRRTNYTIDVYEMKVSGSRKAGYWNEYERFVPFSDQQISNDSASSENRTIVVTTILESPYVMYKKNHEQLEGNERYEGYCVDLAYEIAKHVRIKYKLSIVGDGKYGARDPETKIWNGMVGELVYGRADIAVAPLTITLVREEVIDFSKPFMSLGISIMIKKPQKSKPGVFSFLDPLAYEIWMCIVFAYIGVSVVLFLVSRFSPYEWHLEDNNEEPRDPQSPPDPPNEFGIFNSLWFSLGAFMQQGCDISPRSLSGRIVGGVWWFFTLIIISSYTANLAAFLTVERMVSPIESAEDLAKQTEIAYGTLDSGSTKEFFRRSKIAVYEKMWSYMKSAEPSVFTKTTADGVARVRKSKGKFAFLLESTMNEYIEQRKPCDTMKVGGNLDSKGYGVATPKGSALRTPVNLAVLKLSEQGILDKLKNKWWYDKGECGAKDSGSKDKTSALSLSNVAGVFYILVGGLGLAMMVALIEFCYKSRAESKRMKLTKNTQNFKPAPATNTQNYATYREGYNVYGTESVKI
- ASSAY_EXPLANATION: Two-electrode voltage clamp, AMPA receptor GluA2/3 expressed in Xenopus oocytes
- Assay type: cell-based
- ASSAY_CONDITIONS: glutamate 100 µM; membrane potential −80 mV; n = 6; read-out: IC50
pIC50: −log10 of the molar value.

| MOLECULE_SMILES | pIC50 |
| --- | --- |
| CCCCCCCCCC(=O)O | 2.95 |

* * *

- TARGET_UNDER_TEST: AMPA receptor GluA2/3 (Homo sapiens, UniProt P42262+P42263)
- Construct: expressed in transfected cells; host or cells: Xenopus laevis oocytes injected with cRNA (1:1 mix)
- ASSAY_EXPLANATION: Two-electrode voltage clamp, AMPA receptor GluA2/3 expressed in Xenopus oocytes
- Format: cell-based
- ASSAY_CONDITIONS: glutamate 1 mM; n = 10; read-out: IC50, inhibition of glutamate-induced AMPA receptor current

| MOLECULE_SMILES | IC50 / µM |
| --- | --- |
| CCCCCCCCCC(=O)O | 540 |
